Here the recorded Kd is given for each entry.
# study-target: T1, BsGpsB1-68 (B. subtilis, UniProt P0CI74 1-68)
# T1 construct: GpsB, Bacillus subtilis, residues 1-68 (N-terminal domain); also called N-terminal domain of B. subtilis GpsB; wildtype BsGpsB1-68; source: E. coli BL21(DE3), purified (Ni-NTA, thrombin removal of the His6-tag, SEC); not shown: His6, N-terminal, cleaved
# T1 sequence (looked up): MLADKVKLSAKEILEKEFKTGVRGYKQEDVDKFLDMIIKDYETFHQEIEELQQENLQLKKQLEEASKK
# assay-comment: fluorescence polarisation; GpsB protein titrated into TAMRA- or fluorescein-labelled peptide; 10 mM Tris.HCl pH 8.0, 250 mM NaCl, 0.1% reduced Triton X-100; all data fitted to a 1:1 interaction model, Kd ± standard error
# test-settings: both partners purified
No end group written: not given here.
result-type: Kd

1. GSMADQFNSAEARRKANC(TAMRA‑maleimide)KSSPSPKKGKKRKKGG (non-native N-terminal residues left by the recombinant method; PBP1 (ponA), Bacillus subtilis, residues 1-32; also called BsPBP1 1-32 R8A) [TAMRA-BsPBP11-32 Arg8Ala] = > 1700 µM
2. GSMADQFNSREPRRKANSKSSPSPKKGKKRKKC(fluorescein‑maleimide)G (non-native N-terminal residues left by the recombinant method; PBP1 (ponA), Bacillus subtilis, residues 1-32; also called 31-labelled BsPBP1 1-32 A10P) [Fluorescein-BsPBP11-32 Ala10Pro] = > 500 µM
3. GSMADQFNSREAARKANC(TAMRA‑maleimide)KSSPSPKKGKKRKKGG (non-native N-terminal residues left by the recombinant method; PBP1 (ponA), Bacillus subtilis, residues 1-32; also called BsPBP1 1-32 R11A) [TAMRA-BsPBP11-32 Arg11Ala] = > 600 µM
